species on record: Rattus norvegicus; assay: Open TG-GATES - Regimen: Daily Repeat; type: toxicity, organism-based, Sprague-Dawley; design: regimen Daily Repeat, gender Male, age 6 weeks; conditions: in vivo, po, 0 mg/kg, […], tissue Plasma, route gavage, dose level Control, time 14 day
Consider the following molecules; for each one, report its IP.
One number for each entry, in mg/dL.

// below: answered molecules
* CC(CN1c2ccccc2Sc2ccccc21)N(C)C (stereo not given) | 7
* CN1C(C(=O)Nc2ccccn2)=C(O)c2sc(Cl)cc2S1(=O)=O | 6.9
* Cc1cccc(Nc2ccccc2C(=O)O)c1C | 7.1
* O=C(O)Cc1ccccc1Nc1c(Cl)cccc1Cl | 7.2
* CC(=O)Nc1nnc(S(N)(=O)=O)s1 [ACETAZOLAMIDE] | 7.4

// for each molecule below, give its IP
1. CCOC(=O)[C@H](CCc1ccccc1)N[C@@H](C)C(=O)N1CCC[C@H]1C(=O)O
2. Clc1c(Cl)c(Cl)c(Cl)c(Cl)c1Cl
3. C#C[C@]1(O)CC[C@H]2[C@@H]3CCC4=Cc5oncc5C[C@]4(C)[C@H]3CC[C@@]21C

Out:
1. 8
2. 7.6
3. 7.2

// for each molecule below, give its IP
1. CN(C)[C@@H]1C(O)=C(C(N)=O)C(=O)[C@@]2(O)C(O)=C3C(=O)c4c(O)cccc4[C@@](C)(O)[C@H]3C[C@@H]12
2. C1CCC(C(CC2CCCCN2)C2CCCCC2)CC1 (stereo not given)

Out:
1: 7.9; 2: 6.1
